Mark condition met for reported log10 Koc (L/kg) of 2 or greater; mark condition not met for anything smaller.

* CC(=O)Nc1cc(NS(=O)(=O)C(F)(F)F)c(C)cc1C | condition met
* O=c1ccc(=O)[nH][nH]1 | condition not met
* BrC=CBr | condition not met
* Cc1cccc2ccccc12 | condition met
* c1ccc2c(c1)cc1ccc3cccc4ccc2c1c34 | condition met
* COC(=O)Nc1cccc(OC(=O)Nc2cccc(C)c2)c1 | condition met
* O=C1OCc2c(Cl)c(Cl)c(Cl)c(Cl)c21 | condition met
* CCCC(=O)Oc1c(Br)cc(C#N)cc1Br | condition met
* CCNc1nc(Cl)nc(NC(C)C)n1 | condition met
* CCCSP(=O)(OCC)Oc1ccc(Br)cc1Cl (stereo not given) | condition met
* S=C=S | condition met
* O=C(O)C1C2CCC(O2)C1C(=O)O (stereo not given) | condition met
* CC(N)=O | condition not met
* Oc1ccc(Br)cc1 | condition met
